assay-target: furin (endogenous protease) in U20S cells (Homo sapiens, UniProt P09958)
Construct: the endogenous protease cleaves GFP; endogenous in cells; host or cells: U2OS cells transduced with a BacMam reporter
Sequence (P09958 108-794): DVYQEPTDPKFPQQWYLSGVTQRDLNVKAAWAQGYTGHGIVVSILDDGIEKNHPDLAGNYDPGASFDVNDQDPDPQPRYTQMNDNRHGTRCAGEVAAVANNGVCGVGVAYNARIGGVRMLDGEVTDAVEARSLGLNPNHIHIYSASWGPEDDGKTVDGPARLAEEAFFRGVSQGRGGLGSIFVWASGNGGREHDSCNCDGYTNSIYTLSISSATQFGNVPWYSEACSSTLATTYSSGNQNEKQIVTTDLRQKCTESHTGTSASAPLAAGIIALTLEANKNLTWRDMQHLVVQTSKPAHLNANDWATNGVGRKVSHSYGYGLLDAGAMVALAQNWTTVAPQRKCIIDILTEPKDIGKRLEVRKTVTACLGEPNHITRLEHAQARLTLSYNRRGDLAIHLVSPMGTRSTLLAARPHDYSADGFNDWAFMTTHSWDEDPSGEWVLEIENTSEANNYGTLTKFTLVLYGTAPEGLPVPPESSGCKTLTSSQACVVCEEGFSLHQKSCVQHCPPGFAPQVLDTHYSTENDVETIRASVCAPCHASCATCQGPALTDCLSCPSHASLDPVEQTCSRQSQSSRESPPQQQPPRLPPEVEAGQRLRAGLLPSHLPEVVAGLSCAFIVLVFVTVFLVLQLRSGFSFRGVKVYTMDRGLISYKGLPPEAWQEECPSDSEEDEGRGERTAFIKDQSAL
protocol-text: Furin cell-based assay (image-based, Golgi-targeted GFP with BMP10 furin/PCSK cleavage site);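 also: Read-out is mean GFP fluorescence of Golgi puncta per cell by high-content imaging, retained when furin inhibited, over an eleven-point 0.00017–10 µM series, four-parameter fit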
condition: 24-hour incubation, read-out: furin golgi cell pXC50 (converted)
measurement-label: EC50 (nM)

These solved cases illustrate the format of a correct answer.
compound: CS(=O)(=O)CCCN1CCN(c2ccc(Oc3cc(CN4CCC(CC(N)=O)CC4)cc(-c4cc(Cl)cc(Cl)c4)n3)cn2)CC1 [Example 264]
EC50 / nM: 3.98
--
compound: CN1CCN(c2cnc(Oc3cc(CN4CCC(OC5(C(=O)O)CC5)CC4)cc(-c4cc(Cl)cc(Cl)c4)n3)cn2)CC1 [Example 353]
EC50 / nM: 25.1
--
compound: COC(=O)NCC1CCN(Cc2cc(Oc3cnc(N4CC5CCC(C4)N5CCC(=O)O)nc3)nc(-c3cc(Cl)cc(Cl)c3)c2)CC1 [Example 56]
EC50 / nM: 5.01
--
compound: O=C(O)CC1CCN(Cc2cc(Oc3cnc(N4CCNCC4)nc3)nc(-c3cc(Cl)cc(Cl)c3)c2)CC1 [Example 206]
EC50 / nM: 25.1
--
compound: CC(CCN1CCN(c2ncc(Oc3cc(CN4CCC(CCO)CC4)cc(-c4cc(Cl)cc(Cl)c4)n3)cn2)CC1)C(=O)O (stereo not shown) [Example 57]
EC50 / nM: 10

(P) CC(=O)NCC1CCN(Cc2cc(Oc3cnc(N4CCN(CC(C)C(N)=O)CC4)nc3)nc(-c3cc(Cl)cc(Cl)c3)c2)CC1 (stereo not shown) [Example 284]
(Q) COCCN1CCN(c2ncc(Oc3cc(CN4CCC(CC(=O)O)CC4)cc(-c4cc(Cl)cc(Cl)c4)n3)cn2)CC1 [Example 247]
Lowest EC50? choose P or Q Write down the label attached to your selection.
P
(P: 1.26 nM, Q: 31.6 nM)

(A) CC(=O)NCC1CCN(Cc2cc(Oc3ccc(N4CCNC(CO)C4)nc3)nc(-c3cc(Cl)cc(Cl)c3)c2)CC1 (stereo not shown) [Example 195]
(B) CC(CC1CCN(Cc2cc(Oc3cnc(N4CCN(C)CC4)nc3)nc(-c3cc(Cl)cc(Cl)c3)c2)CC1)C(=O)O (stereo in doubt) [Example 137]
Consider A and B . Which of these has its EC50 at a higher number? # reply format: chosen label
B
(B: 10 nM, A: 1 nM)

* * *

assay-target: Furin (108-574-Tev-Flag-His) enzyme (Homo sapiens, UniProt P09958)
Construct: Furin (108-574-Tev-Flag-His) enzyme was expressed and purified from CHO cells; TEV cleavage site (C); FLAG (C); His (C); made in house; host or cells: CHO cells
Sequence (P09958 108-574): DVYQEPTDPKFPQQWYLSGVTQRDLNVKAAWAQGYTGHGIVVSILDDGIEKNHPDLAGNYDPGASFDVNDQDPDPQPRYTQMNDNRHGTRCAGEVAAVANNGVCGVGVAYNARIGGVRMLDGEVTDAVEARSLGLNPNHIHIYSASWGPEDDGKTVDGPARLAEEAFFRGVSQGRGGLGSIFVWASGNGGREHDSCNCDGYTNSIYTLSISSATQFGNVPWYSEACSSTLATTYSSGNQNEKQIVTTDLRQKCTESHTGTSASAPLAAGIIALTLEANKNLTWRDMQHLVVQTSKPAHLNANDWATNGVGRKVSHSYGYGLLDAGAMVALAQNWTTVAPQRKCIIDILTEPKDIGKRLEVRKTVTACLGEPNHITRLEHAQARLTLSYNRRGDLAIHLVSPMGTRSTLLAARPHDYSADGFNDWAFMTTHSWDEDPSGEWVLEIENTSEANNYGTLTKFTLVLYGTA
protocol-text: Furin enzyme assay
Format: biochemical
Counter-ions that a name gives are not always drawn.
measurement-label: furin enzyme pIC50

compound: CNCc1cc(Oc2ccc(N3CCC(N)CC3)nc2)cc(-c2cc(Cl)cc(Cl)c2)c1 [Example 100, hydrochloride]
assay-target: Furin (108-574-Tev-Flag-His) enzyme (Homo sapiens, UniProt P09958)
furin enzyme pIC50: 8.8

compound: CS(=O)(=O)N[C@H]1[C@@H]2CCN(Cc3cc(Oc4cnc(N5CCN(CCC(=O)O)CC5)nc4)nc(-c4cc(Cl)cc(Cl)c4)c3)CC[C@@H]21
assay-target: Furin (108-574-Tev-Flag-His) enzyme (Homo sapiens, UniProt P09958)
furin enzyme pIC50: 9.5

compound: CC(C)N1CCN(c2cnc(Oc3cc(CN4CCC(CC(=O)O)CC4)cc(-c4cc(Cl)cc(Cl)c4)n3)cn2)CC1
assay-target: Furin (108-574-Tev-Flag-His) enzyme (Homo sapiens, UniProt P09958)
furin enzyme pIC50: 8.5

compound: CNC(=O)NCC1CCN(Cc2cc(Oc3ccc(N4CCN(CCCS(C)(=O)=O)CC4)nc3)nc(-c3cc(Cl)cc(Cl)c3)c2)CC1
assay-target: Furin (108-574-Tev-Flag-His) enzyme (Homo sapiens, UniProt P09958)
furin enzyme pIC50: 9.5

compound: CC1(C)CN(c2ncc(Oc3cc(CN4CCC(CC(=O)O)CC4)cc(-c4cc(Cl)cc(Cl)c4)n3)cn2)CCN1
assay-target: Furin (108-574-Tev-Flag-His) enzyme (Homo sapiens, UniProt P09958)
furin enzyme pIC50: 8.8

compound: CN1CCN(c2ccc(Oc3cc(CN4CCC(CC(=O)O)CC4)cc(-c4cc(Cl)cc(Cl)c4)n3)cc2)CC1
assay-target: Furin (108-574-Tev-Flag-His) enzyme (Homo sapiens, UniProt P09958)
furin enzyme pIC50: 8.2

compound: NC(=O)OCCN1CCN(Cc2cc(Oc3ccc(N4CCN(CCC(=O)O)CC4)nc3)nc(-c3cc(Cl)cc(Cl)c3)c2)CC1
assay-target: Furin (108-574-Tev-Flag-His) enzyme (Homo sapiens, UniProt P09958)
furin enzyme pIC50: 8.2

compound: O=C(O)CC1CCN(Cc2cc(Oc3cnc(N4CCN(CCO)CC4)nc3)nc(-c3cc(Cl)cc(Cl)c3)c2)CC1
assay-target: Furin (108-574-Tev-Flag-His) enzyme (Homo sapiens, UniProt P09958)
furin enzyme pIC50: 8.9

compound: CNC(=O)OCC1CCN(Cc2cc(Oc3cnc(N4CCN(CCCS(C)(=O)=O)CC4)nc3)nc(-c3cc(Cl)cc(Cl)c3)c2)CC1
assay-target: Furin (108-574-Tev-Flag-His) enzyme (Homo sapiens, UniProt P09958)
furin enzyme pIC50: 8.7

compound: CN1CCN(c2ccc(Oc3cc(CN4CC[C@@H]5[C@H](CC4)[C@H]5C(=O)O)cc(-c4cc(Cl)cc(Cl)c4)n3)nn2)CC1
assay-target: Furin (108-574-Tev-Flag-His) enzyme (Homo sapiens, UniProt P09958)
furin enzyme pIC50: 9

compound: Cc1nc(N2CCN(C)CC2)ccc1Oc1cc(CN2CCC(CC(=O)O)CC2)cc(-c2cc(Cl)cc(Cl)c2)n1
assay-target: Furin (108-574-Tev-Flag-His) enzyme (Homo sapiens, UniProt P09958)
furin enzyme pIC50: 8.3

compound: CNC(=O)OCCN1CCN(c2ncc(Oc3cc(CN4CCC(CC(=O)O)CC4)cc(-c4cc(Cl)cc(Cl)c4)n3)cn2)CC1
assay-target: Furin (108-574-Tev-Flag-His) enzyme (Homo sapiens, UniProt P09958)
furin enzyme pIC50: 8.6

compound: CNCc1cc(Oc2ccc(N3CCCNCC3)nc2)cc(-c2cc(Cl)cc(Cl)c2)c1
assay-target: Furin (108-574-Tev-Flag-His) enzyme (Homo sapiens, UniProt P09958)
furin enzyme pIC50: 8.9

compound: NC(=O)CN1CCN(Cc2cc(Oc3cnc(N4CCN(CCC(=O)O)CC4)nc3)nc(-c3cc(Cl)cc(Cl)c3)c2)CC1
assay-target: Furin (108-574-Tev-Flag-His) enzyme (Homo sapiens, UniProt P09958)
furin enzyme pIC50: 8.3

compound: NC1CCN(c2ncc(Oc3cc(CN4CCC(CC(=O)O)CC4)cc(-c4cc(Cl)cc(Cl)c4)n3)cn2)CC1
assay-target: Furin (108-574-Tev-Flag-His) enzyme (Homo sapiens, UniProt P09958)
furin enzyme pIC50: 8.8

compound: CC(=O)NC(=O)OCC1CCN(Cc2cc(Oc3cnc(N4CCN(C)CC4)nc3)nc(-c3cc(Cl)cc(Cl)c3)c2)CC1
assay-target: Furin (108-574-Tev-Flag-His) enzyme (Homo sapiens, UniProt P09958)
furin enzyme pIC50: 8.3

compound: CC(=O)NCC1CCN(Cc2cc(Oc3cnc(N4CC5CCC(C4)N5)nc3)nc(-c3cc(Cl)cc(Cl)c3)c2)CC1
assay-target: Furin (108-574-Tev-Flag-His) enzyme (Homo sapiens, UniProt P09958)
furin enzyme pIC50: 9.2

compound: CS(=O)(=O)CC1CCN(Cc2cc(Oc3ccc(N4CCN(CCC(=O)O)CC4)nc3)nc(-c3cc(Cl)cc(Cl)c3)c2)CC1
assay-target: Furin (108-574-Tev-Flag-His) enzyme (Homo sapiens, UniProt P09958)
furin enzyme pIC50: 8.3

compound: CC(=O)NCC1CCN(Cc2cc(Oc3ccc(N4CCN(CCCC(=O)O)CC4)nc3)nc(-c3cc(Cl)cc(Cl)c3)c2)CC1
assay-target: Furin (108-574-Tev-Flag-His) enzyme (Homo sapiens, UniProt P09958)
furin enzyme pIC50: 9.1

compound: CC(=O)NCC1CCN(Cc2cc(Oc3cnc(N4CCN(CCCS(C)(=O)=O)CC4)nc3)nc(-c3cc(Cl)cc(Cl)c3)c2)CC1
assay-target: Furin (108-574-Tev-Flag-His) enzyme (Homo sapiens, UniProt P09958)
furin enzyme pIC50: 9.8

compound: NS(=O)(=O)CC1CCN(Cc2cc(Oc3ccc(N4CCN(CCC(=O)O)CC4)nc3)nc(-c3cc(Cl)cc(Cl)c3)c2)CC1
assay-target: Furin (108-574-Tev-Flag-His) enzyme (Homo sapiens, UniProt P09958)
furin enzyme pIC50: 9

compound: CN1CCN(c2ncc(Oc3cc(CN4CCC(OCC(=O)O)C4)cc(-c4cc(Cl)cc(Cl)c4)n3)cn2)CC1 (centres unmarked)
assay-target: Furin (108-574-Tev-Flag-His) enzyme (Homo sapiens, UniProt P09958)
furin enzyme pIC50: 7.9

compound: CC(CC1CCN(Cc2cc(Oc3cnc(N4CCN(C)CC4)nc3)nc(-c3cc(Cl)cc(Cl)c3)c2)CC1)C(=O)O (stereo in doubt) [Example 137]
assay-target: Furin (108-574-Tev-Flag-His) enzyme (Homo sapiens, UniProt P09958)
furin enzyme pIC50: 9.1

compound: CNC(=O)NCC1CCN(Cc2cc(Oc3cnc(N4CCN(C5CC(C(=O)O)C5)CC4)nc3)nc(-c3cc(Cl)cc(Cl)c3)c2)CC1 (centres unmarked)
assay-target: Furin (108-574-Tev-Flag-His) enzyme (Homo sapiens, UniProt P09958)
furin enzyme pIC50: 10.4

compound: CN1CCN(c2ncc(Oc3cc(CN4CCC(CP(C)(C)=O)CC4)cc(-c4cc(Cl)cc(Cl)c4)n3)cn2)CC1 [Example 320, hydrochloride]
assay-target: Furin (108-574-Tev-Flag-His) enzyme (Homo sapiens, UniProt P09958)
furin enzyme pIC50: 8.2

compound: O=C(O)CC1CCN(Cc2cc(Oc3cnc(N4CCN5CCC4C5)cn3)nc(-c3cc(Cl)cc(Cl)c3)c2)CC1 (centres unmarked)
assay-target: Furin (108-574-Tev-Flag-His) enzyme (Homo sapiens, UniProt P09958)
furin enzyme pIC50: 8.4
